Attribution: patent US20260116991A1

Each entry below lists one item and its recorded koff value.
# system_tested: T1, human GPC3-His protein (human, UniProt P51654 25-559)
# T1 construct: also called human GPC3 protein; not shown: His tag
# test_name: SPR, antibody captured on Protein A chip, human GPC3-His analyte;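 note: measured at 25 °C flow cell, human GPC3-His injected at five concentrations up to 200 nM, 240 s association, up to 600 s dissociation, double-referenced, fitted to Langmuir 1:1 model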
Give the value, in units of s⁻¹, as a plain number.

// known answers, use as guide
F4.21.16 (antibody, human IgG1, kappa, V domains shown, Human-murine chimeric antibody) VH: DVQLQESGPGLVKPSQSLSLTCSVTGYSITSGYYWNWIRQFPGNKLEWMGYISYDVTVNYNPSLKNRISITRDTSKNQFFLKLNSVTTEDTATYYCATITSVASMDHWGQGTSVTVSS VL: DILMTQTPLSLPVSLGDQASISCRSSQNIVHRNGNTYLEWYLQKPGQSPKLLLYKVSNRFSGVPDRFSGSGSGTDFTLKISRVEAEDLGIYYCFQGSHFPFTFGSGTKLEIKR    0.000267
F2.92.1 (antibody, human IgG1, kappa, V domains shown, Human-murine chimeric antibody) VH: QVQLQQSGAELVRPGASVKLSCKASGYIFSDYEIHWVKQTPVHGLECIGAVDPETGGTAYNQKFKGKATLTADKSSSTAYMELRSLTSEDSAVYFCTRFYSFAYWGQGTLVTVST VL: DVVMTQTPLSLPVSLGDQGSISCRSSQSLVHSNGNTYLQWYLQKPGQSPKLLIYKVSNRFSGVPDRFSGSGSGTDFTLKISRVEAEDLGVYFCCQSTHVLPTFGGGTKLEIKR    0.000242
F3.81.19 (antibody, human IgG1, kappa, V domains shown, Human-murine chimeric antibody) VH: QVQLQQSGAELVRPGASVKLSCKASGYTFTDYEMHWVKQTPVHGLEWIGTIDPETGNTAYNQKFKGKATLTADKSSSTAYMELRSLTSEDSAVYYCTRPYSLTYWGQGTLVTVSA VL: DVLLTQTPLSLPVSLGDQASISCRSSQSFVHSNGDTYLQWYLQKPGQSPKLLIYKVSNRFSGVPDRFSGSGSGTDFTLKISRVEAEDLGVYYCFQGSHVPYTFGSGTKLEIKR    0.000231
F4.26.1 (antibody, human IgG1, kappa, V domains shown, Human-murine chimeric antibody) VH: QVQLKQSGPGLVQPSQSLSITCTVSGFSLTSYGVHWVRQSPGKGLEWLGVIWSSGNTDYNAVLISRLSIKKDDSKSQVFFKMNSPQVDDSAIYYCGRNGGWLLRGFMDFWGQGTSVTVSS VL: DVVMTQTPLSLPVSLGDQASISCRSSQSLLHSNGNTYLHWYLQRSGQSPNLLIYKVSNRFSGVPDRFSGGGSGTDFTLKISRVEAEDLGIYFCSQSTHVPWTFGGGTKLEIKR    0.000461

Now let's try a different one.
The recorded koff for entry F2.55.11 (antibody, human IgG1, kappa, V domains shown, Human-murine chimeric antibody) VH: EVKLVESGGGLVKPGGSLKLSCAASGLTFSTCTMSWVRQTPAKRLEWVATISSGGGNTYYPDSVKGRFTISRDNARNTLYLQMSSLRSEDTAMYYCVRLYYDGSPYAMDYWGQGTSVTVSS VL: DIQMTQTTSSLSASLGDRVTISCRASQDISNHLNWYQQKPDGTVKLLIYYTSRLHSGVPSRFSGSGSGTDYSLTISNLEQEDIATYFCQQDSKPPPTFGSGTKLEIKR equals 0.000443
